ASSAYED_SYSTEM: T1, human GIP receptor (human, UniProt P48546 22-466)
T1 sequence (looked up): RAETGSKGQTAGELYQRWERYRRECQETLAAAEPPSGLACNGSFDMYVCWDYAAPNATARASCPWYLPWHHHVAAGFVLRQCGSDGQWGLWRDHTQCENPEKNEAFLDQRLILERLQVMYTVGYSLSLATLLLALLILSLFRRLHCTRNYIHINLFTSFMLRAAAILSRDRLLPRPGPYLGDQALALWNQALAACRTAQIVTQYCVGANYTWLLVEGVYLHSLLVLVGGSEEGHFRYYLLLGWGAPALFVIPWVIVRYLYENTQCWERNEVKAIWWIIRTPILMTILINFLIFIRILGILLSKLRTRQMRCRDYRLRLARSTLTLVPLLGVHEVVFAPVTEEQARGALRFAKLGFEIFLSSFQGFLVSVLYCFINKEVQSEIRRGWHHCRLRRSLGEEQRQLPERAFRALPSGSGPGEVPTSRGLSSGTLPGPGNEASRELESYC
PROCEDURE_DETAILS: cell-based or functional assay
Square brackets hold non-standard residues; d marks the D form. Ends that are not written are not given here. Aib = CC(C)(N)C(=O)O
READOUT_TYPE: hGIPR cAMP Rel EC50 (nM)
Give your result in nM as a bare value.

- BINDER: "YXEGTXTSDYSILLDKKAQXAFIEYLIEGG (Aib2; αMeF6; K17((2-[2-(2-Amino-ethoxy)-ethoxy]-acetyl)2-(γ-Glu)-CO-(CH2)18-CO2H); Aib20; C-terminal NH2) [Example 98]"
  hGIPR cAMP Rel EC50 [nM]: 0.0718
- BINDER: "H[Aib]EGTFTSDYSILLDKKAQ[Aib]AFIEYLLE[Aib]GPSSGAPPPS-NH2 (not fully specified (residue 17)) [Example 15]"
  hGIPR cAMP Rel EC50 [nM]: 0.613
- BINDER: "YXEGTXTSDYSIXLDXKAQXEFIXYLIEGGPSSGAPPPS (Aib2; αMeF(2F)6; αMeL13; Orn16; K17((2-[2-(2-Amino-ethoxy)-ethoxy]-acetyl)2-(γ-Glu)-CO-(CH2)18-CO2H); Aib20; D-Glu24; C-terminal NH2) [Example 3]"
  hGIPR cAMP Rel EC50 [nM]: 0.0411

Consider YXEGTXTSDYSIXLDKKAQXAFIEYLIEGGPSSGAPPPS (not fully specified; Aib2; αMeF6; αMeF13 as printed (likely αMeL13); K17((2-[2-(2-Amino-ethoxy)-ethoxy]-acetyl)2-(γ-Glu)-CO-(CH2)18-CO2H); Aib20; C-terminal NH2) [Example 69] . Its measured hGIPR cAMP Rel EC50 is 0.0712

Data point: YXXGTFTSDYSILLDKKAQXAFIEYLIEGGPSSGAPPPS (Aib2; γ-Glu3; K17((2-[2-(2-Amino-ethoxy)-ethoxy]-acetyl)2-(γ-Glu)-CO-(CH2)18-CO2H); Aib20; C-terminal NH2) [Example 91] ; hGIPR cAMP Rel EC50 = 19.2

Quick note, hGIPR cAMP Rel EC50 for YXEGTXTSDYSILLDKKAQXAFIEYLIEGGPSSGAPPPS (Aib2; αMeF6; K17((2-[2-(2-Amino-ethoxy)-ethoxy]-acetyl)2-(γ-Glu)-CO-(CH2)18-CO2H); Aib20; C-terminal NH2) [Example 57] landed at 0.0849

Record YXEGTXTSDVSIXLDXKAQXEFIXXLIEGGPSSGAPPPS (Aib2; αMeF(2F)6; αMeL13; Orn16; K17((2-[2-(2-Amino-ethoxy)-ethoxy]-acetyl)2-(γ-Glu)-CO-(CH2)16-CO2H); Aib20; D-Glu24; αMeY25; C-terminal NH2) [Example 5] , field hGIPR cAMP Rel EC50: 0.0309

Entry YXEGTFTSDYSIXLDKKAQXAXIEYLIEGGPSSGAPPPS (not fully specified; Aib2; αMeF13 as printed (likely αMeL13); K17((2-[2-(2-Amino-ethoxy)-ethoxy]-acetyl)2-(γ-Glu)-CO-(CH2)18-CO2H); Aib20; αMeF22; C-terminal NH2) [Example 74] ; hGIPR cAMP Rel EC50 = 0.0866

For YXEGTFTSDYSXLLDKKAQXAFIEYLIEGGPSSGAPPPS (Aib2; D-Ile12; K17((2-[2-(2-Amino-ethoxy)-ethoxy]-acetyl)2-(γ-Glu)-CO-(CH2)18-CO2H); Aib20; C-terminal NH2) [Example 82] the binder record lists hGIPR cAMP Rel EC50 as 24.3

hGIPR cAMP Rel EC50 for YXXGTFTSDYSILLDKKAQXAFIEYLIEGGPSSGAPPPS (Aib2; Aad3; K17((2-[2-(2-Amino-ethoxy)-ethoxy]-acetyl)2-(γ-Glu)-CO-(CH2)18-CO2H); Aib20; C-terminal NH2) [Example 89] is 0.119

YXEGTFTSDYSIXLDKKAQXAFIEYXIEGGPSSGAPPPS (not fully specified; Aib2; αMeF13 as printed (likely αMeL13); K17((2-[2-(2-Amino-ethoxy)-ethoxy]-acetyl)2-(γ-Glu)-CO-(CH2)18-CO2H); Aib20; αMeF26 as printed (likely αMeL26); C-terminal NH2) [Example 75] has a reported hGIPR cAMP Rel EC50 of 0.214

Record summary for YXEGTFTSDYSILLDKKAQXAFIXYLIEGGPSSGAPPPS (Aib2; K17((2-[2-(2-Amino-ethoxy)-ethoxy]-acetyl)2-(γ-Glu)-CO-(CH2)18-CO2H); Aib20; D-Glu24; C-terminal NH2) [Example 84] : reported hGIPR cAMP Rel EC50 = 0.0915

Quick note, hGIPR cAMP Rel EC50 for YXEGTXTSDYSIXLDKKAQXAXIEYLIEGGPSSGAPPPS (not fully specified; Aib2; αMeF6; αMeF13 as printed (likely αMeL13); K17((2-[2-(2-Amino-ethoxy)-ethoxy]-acetyl)2-(γ-Glu)-CO-(CH2)18-CO2H); Aib20; αMeF22; C-terminal NH2) [Example 76] landed at 0.124
